This listing pairs compounds with measured melting point.

// solved cases for melting point follow
In [3]: df
Out[3]:
                                   compound  endpoint_result
0  CCOCc1nc2c(N)nc3ccccc3c2n1CC1(O)CCN(C(=O)OCC)CC1    165 to 167 °C
1                Nc1ccc2ccc(Oc3cccnc3)nc2n1           178 °C
2  CN1CCC(c2cccc3ccc(-n4cnc5ncccc54)cc23)CC1    118 to 120 °C
3  CC(=O)OCCn1ccc(=O)c(OCc2ccccc2)c1C(OC(C)=O)c1ccccc1F (stereo not given)    173 to 174 °C

Ask: Name the reported melting point value associated with the compound O=C1c2c(Br)cccc2-n2cnc(-c3noc(CCl)n3)c2[C@@H]2CCCN12
Result: 242 to 244 °C

====

In this section, each of the compounds is paired with its reported melting point.

Known results for compounds:
>>> df
                                   compound  endpoint_result
0  COP(=O)(Cc1cc(C(C)(C)C)c(O)c(C(C)(C)C)c1)OC           155 °C
1  Cc1cc([N+](=O)[O-])c(C)cc1Cc1cccc(C(F)(F)F)c1      75 to 77 °C
2  COC(=O)NC1Cc2ccc([N+](=O)[O-])cc2C1OC(C)=O (configuration not stated)    164 to 167 °C

Ask: Form field: reported melting point of CN(C)S(=O)(=O)NC(=O)N1CC(c2ccccc2)C(c2ccc(Cl)cc2)=N1 (configuration not stated)
Result: 210 to 212 °C

Ask: Give the measured melting point of CCCc1c(OC2CCCOC2)ccc2c(O)cc(=O)oc12 (configuration not stated) .
Result: 163 to 165 °C

Ask: # lookup: melting point of C#CCOc1ccc2c(Cl)nnc(C)c2c1
Result: 178 to 180 °C

Ask: Entry under review: O=C(Nc1ccc(C[C@H](NS(=O)(=O)N2CCSCC2)C(=O)O)cc1)c1c(Cl)cncc1Cl . Reported melting point?
Result: 173 °C

Ask: Which melting point reading was recorded for the compound Cc1nc(Cl)c2c(C)cn(-c3c(Cl)cc(Br)cc3Br)c2n1 ?
Result: 157 to 159 °C

Ask: Which value of melting point has been reported for N#Cc1c[nH]c2cc3ccccc3cc2c1=O in the records?
Result: > 260 °C

Ask: What value of melting point has been recorded for this entry: O=C(O)COc1cccc2c1Cc1sc(SCCC(c3ccccc3)c3ccccc3)nc1-2
Result: 100 to 103 °C

Ask: Could you share which melting point value was measured for O=Nc1ccc(NC2CCCCC2)cc1 ?
Result: 90 to 92 °C

Ask: Given the compound CCCc1cccc(N2CC(=O)NC(=O)N2)c1 , what is its reported melting point?
Result: 188 to 190 °C

====

Below, each entry is listed with its recorded melting point.

>>> df
                                   compound         metric  endpoint_result
0  CCOP(=O)(OCC)c1cc2cc([N+](=O)[O-])c(Cl)cc2[nH]c1=O  melting point    258 to 262 °C
1  Nc1nc2c(sc(=O)n2C2OC(COC(=O)c3ccccc3)C(OC(=O)c3ccccc3)C2F)c(=O)[nH]1 (stereo unspecified)  melting point    282 to 284 °C
2  N#CNC(=NCCc1ccccc1Cl)c1cncc(NCc2ccccc2)c1  melting point           146 °C
3   COC(=O)ONC(=N)Nc1ccc(C(=O)OC(C)(C)C)cc1  melting point    122 to 126 °C
4               CSCCNC(N)=Nc1ccccc1N1CCOCC1  melting point    115 to 116 °C
5  CC(C)c1nc(C(C)C)c(CNC2CCCCC2)c(-c2ccc(F)cc2)c1CO  melting point    131 to 133 °C
6         COc1ccc(Cc2ccc3nc(N)nc(N)c3c2)cc1  melting point    207 to 209 °C
7  Cc1cn2c(c1C(=O)OC(C)C)SCC2CC(N)=O (stereo unspecified)  melting point    143 to 146 °C
8  Cc1nc2scc(-c3ccc(F)cc3)n2c(=O)c1CCN1CCC(c2noc3cc(F)ccc23)CC1  melting point    119 to 122 °C
9  COC(C)(OC)C(=O)CCCCCCOc1ccc(-c2ccccc2)cc1  melting point            48 °C

Ask: What measured melting point goes with CON(C)Cc1nc2c(N)nc(C)c(C)c2n1CC(C)C ?
Result: 132 to 134 °C

Ask: Give its melting point value. Item: CC(=O)N1CCC(C(=O)OC2c3ccccc3C(=O)N2c2ccc3ccc(Cl)nc3n2)CC1 (stereo unspecified)
Result: 101 °C

Ask: Dear colleague, I am looking for the recorded melting point of the following compound: COc1cc(C(=O)O)ccc1Cc1c(Cl)n(C)c2cc(Cl)c(CC(C)NC(=O)N(C)C)cc12 (stereo unspecified)
Result: 125 to 135 °C

====

Measured melting point accompanies every entry in the list below.

                               molecule  endpoint_result
0  CCCCn1c(=O)n(CCC)c(=O)c2c(N)n[nH]c21    209 to 211 °C

Ask: Please look up its melting point: Cn1cc(CS(C)=O)c(=O)c2ccc(Cl)cc21 (stereo not given)
Result: 180 to 181 °C

Ask: # get_value(readout='melting point', item= O=C(C(=O)c1cnn(CC(F)(F)F)c1)c1cccc(Br)c1 )
Result: 66 to 67 °C

Ask: Find the recorded melting point belonging to C[C@@H](n1cncn1)[C@](O)(Cn1cncn1)c1ccccc1F and report it.
Result: 105 to 106 °C

Ask: Entry O=C(NC1N=C(c2ccccc2)c2oc3ccccc3c2NC1=O)OCc1ccccc1 (stereo not given) has what melting point?
Result: > 260 °C

Ask: For the molecule shown here, O=C(Oc1ccc(CCN(F)F)cc1)c1ccccc1 , give the reported melting point.
Result: 67 to 67.5 °C

====

Reported melting point values for the following molecules.
# value in °C; strip the unit string

                                   molecule         metric  endpoint_result
0  CN1CC(OC(=O)C(c2ccccc2)c2ccccc2)CNC1=N[N+](=O)[O-] (stereo not given)  melting point              187

Please look at the following molecule next.
Ask: Any idea what its melting point is? The molecule is O=C(NCCN1CCOCC1)Nc1nc2ccc(OCc3c(F)cccc3F)cc2s1
Result: 219

====

Measured melting point values are reported for all entries that follow.

Recorded melting point, per entry:
>>> df
                                   compound  endpoint_result
0  O=c1nc(NCCCn2ccnc2)n2c3c1cnn3C(c1cccc(F)c1)=CC2    256 to 258 °C
1     CNC[C@H]1CC[C@H](c2nc3ccccc3[nH]2)CC1    232 to 235 °C
2  CC(C(O)c1ccc2c(c1)CCCS2)N1CCC(NC(=O)c2ccccc2)CC1 (stereo not given)    200 to 201 °C

Ask: Sample CCCCCCCCCCC(C)(C)C(=O)NC1CCCNC(=O)C1 (stereo not given) — what was its melting point?
Result: 41 to 42 °C

Ask: Any idea what its melting point is? The compound is COC1CN(C(=O)c2cc(-c3ccccc3)c(=O)n3c2-c2cc(Cl)ccc2CN3)C1
Result: 238 to 239 °C

====

Each entry below carries its reported melting point.

>>> df
                                   molecule         metric  endpoint_result
0                  O=C1CCCN1c1ccc2c(c1)OCO2  melting point      89 to 91 °C
1   O=C(Nc1ccccc1)C1=C(Nc2ccc(Cl)cc2)COC1=O  melting point    209 to 210 °C
2  CC(C)(C)OC(=O)N1C2CCC1CN(CC(O)COc1ccc(C#N)cc1)C2 (stereo unspecified)  melting point     98 to 104 °C

Ask: Reported melting point for CC(=O)C1=C(CS(=O)c2ccccc2)CC2C3CCC4=CC(=O)CCC4(C)C3=CCC12C (stereo unspecified) : what is it?
Result: 160 to 163 °C

Ask: Need melting point of CC(=O)NC[C@H]1CN(c2ccc(N3C[C@H]4CN(C(=O)OCc5ccccc5)C[C@H]4C3)cc2)C(=O)O1 , thanks.
Result: 135 to 140 °C

Ask: Need melting point, item CC(C)n1c(=O)[nH]oc1=O
Result: 150 °C

Ask: Could you share which melting point value was measured for N#Cc1ccc(-c2ccc(O)cc2)cc1F ?
Result: 67 to 68 °C

Ask: Dear colleague, I am looking for the recorded melting point of the following molecule: NC(=O)C(Cc1ccccc1)NC(=O)Nc1n[nH]c(=S)s1 (stereo unspecified)
Result: 175 to 177 °C

Ask: Look at this molecule and give its reported melting point. COc1cc(Nc2c(C#N)cnc3c2sc2ccccc23)c(Cl)cc1Cl
Result: 234 to 236 °C

Ask: Please look up its melting point: CC(Oc1ccc(-n2cnc3cc(C(F)(F)F)ccc32)cc1)C(=O)O (stereo unspecified)
Result: 181 to 182 °C

Ask: So what does the record say about melting point for O=c1c2cnn(Cc3ccccc3)c2nc2n1CCS2 ?
Result: 180 to 182 °C

Ask: Given O=C1C(Cl)=C(Nc2ccc(O)cc2)C(=O)c2ccccc21 , state its recorded melting point.
Result: 233 °C

Ask: melting point lookup needed for Cc1cccc([N+](=O)[O-])c1C(=O)Nc1nnn[nH]1 , thanks.
Result: 230 to 232 °C

Ask: Item CC(C(=O)O)c1ccc2c(Br)c(OCc3ccc4ccccc4n3)ccc2c1 (stereo unspecified) has what recorded melting point?
Result: 210 to 212 °C

Ask: Quick one: melting point of Nc1ccccc1Nc1ccc(C(c2ccc(Nc3ccccc3N)cc2)(C(F)(F)F)C(F)(F)F)cc1 ?
Result: 150 to 152 °C

Ask: Value lookup for melting point; key = Cc1cccc(-c2oc3c(C(=O)NCCCN4CCCCC4)cccc3c(=O)c2C)c1
Result: 112 to 114 °C

Ask: Entry under review: O=S(=O)(c1ccc(Cl)cc1)C(c1ccc(CN2CCOCC2)cn1)c1cc(F)ccc1F (stereo unspecified) . Reported melting point?
Result: 120 to 121 °C

Ask: So what's the measured melting point for this one? COCc1nc(N)nc(N)c1-c1ccc(Cl)c(Cl)c1
Result: 204 to 206 °C

Ask: Given CC1(C=C(F)F)CN(C(=O)Nc2ccc(OC(F)(F)F)cc2)N=C1c1ccc(Cl)cc1 (stereo unspecified) , state its recorded melting point.
Result: 142 to 148 °C

Ask: Returns the measured melting point for the input molecule. Input: CCCCCCC(C)Oc1ccc(-c2ccc(O)cc2)cc1F (stereo unspecified)
Result: 65.2 to 66.7 °C

Ask: For CCOC(=O)CCc1ccc(OCCOC)cc1OCc1ccccc1 , what is its reported melting point?
Result: 38 to 39 °C

Origin of the recorded values: a melting point compilation (Tetko et al.; mined from patent text by program, amines drawn as free bases though some values may be those of a salt)
